# Test system: THRa homodimer (NR concentration 90 nM)
# Assay protocol: PBM binding z-score (relative to random genomic background probes); higher = stronger binding; sequences stand for … in GC…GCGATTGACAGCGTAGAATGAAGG
Heads up, the class ranges for PBM binding z-score are Low (below -0.2), Mid (-0.2 to below 0.9), High (0.9 or more)

CCTTACGGGTCACGAGGTTATTGCACGACGAGCG: High
CGTCCAAGGTCAGAGAGGTCAGAGAATGCCGAGT: High
CCTTGCAGGCCAATCTGGGTCACTCAAGGCTTGA: Mid
TCTTGTAGATCAGCCGGTTAAGAAAGCTGGCCAA: Low
CCTCGGAGGACAACAGGAGGTCAGAGCCGCCAGA: Mid

(Q) Form: Item = `CCGACTGCGGCAAGGTTACCATAACGCACAGCCA` ; Class = ?
(A) Mid

(Q) GET /class?item= `GCGACTGGGGCAAAGCATGTTACCATAAGGTTGG`
(A) Low

(Q) Lab note: sort `AGTCAACGTTCATCTAGGTAACGTAAGATATGCT` into the matching PBM binding z-score band.
(A) Mid

(Q) Which class is correct for the following sequence? `GCAGACAGGTGAAACGCAGGTAATTCAGGGTGGC`
(A) Low

(Q) Would you mind sorting `CGTCCAAGGACAAAGGTCAGTGAAGAGATGACGG` into the appropriate category?
(A) High
